target: Phosphatidylinositol 4,5-bisphosphate 3-kinase catalytic subunit delta isoform (Homo sapiens, UniProt O00329)
Sequence (O00329 whole entry, canonical isoform): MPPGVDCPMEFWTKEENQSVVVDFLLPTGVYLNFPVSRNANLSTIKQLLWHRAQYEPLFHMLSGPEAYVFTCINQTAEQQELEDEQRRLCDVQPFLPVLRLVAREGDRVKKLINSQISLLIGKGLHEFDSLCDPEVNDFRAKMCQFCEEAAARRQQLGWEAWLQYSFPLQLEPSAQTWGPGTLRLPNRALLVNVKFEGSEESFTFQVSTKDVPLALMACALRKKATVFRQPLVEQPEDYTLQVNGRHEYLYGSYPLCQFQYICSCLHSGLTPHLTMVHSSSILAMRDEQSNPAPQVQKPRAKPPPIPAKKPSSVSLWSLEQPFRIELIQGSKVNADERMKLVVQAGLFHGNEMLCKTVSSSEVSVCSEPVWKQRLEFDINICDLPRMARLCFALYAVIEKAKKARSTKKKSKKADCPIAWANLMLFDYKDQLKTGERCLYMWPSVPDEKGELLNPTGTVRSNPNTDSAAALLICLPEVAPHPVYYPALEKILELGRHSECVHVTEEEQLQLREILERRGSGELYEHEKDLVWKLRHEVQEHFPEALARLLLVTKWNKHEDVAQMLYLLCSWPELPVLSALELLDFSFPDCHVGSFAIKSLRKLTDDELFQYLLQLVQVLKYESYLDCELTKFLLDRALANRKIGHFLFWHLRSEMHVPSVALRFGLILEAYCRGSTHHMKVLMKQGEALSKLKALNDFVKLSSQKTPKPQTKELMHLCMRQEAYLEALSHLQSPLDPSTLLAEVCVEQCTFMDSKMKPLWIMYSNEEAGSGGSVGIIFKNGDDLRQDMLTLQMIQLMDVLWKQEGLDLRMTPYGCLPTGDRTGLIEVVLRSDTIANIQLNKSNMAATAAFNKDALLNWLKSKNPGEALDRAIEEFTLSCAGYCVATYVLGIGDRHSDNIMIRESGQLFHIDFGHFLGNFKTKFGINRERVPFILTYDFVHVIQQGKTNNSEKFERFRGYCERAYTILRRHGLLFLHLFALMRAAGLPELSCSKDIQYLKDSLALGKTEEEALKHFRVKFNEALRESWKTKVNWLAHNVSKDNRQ
measured-quantity: IC50 (nM)

>>> print(df.to_string())
                                    molecule  measured_quantity  reported_value
 0  CC(=O)NC1CCCN(Cc2cc3nc(-c4cccc5[nH]ncc45)nc(N4CCOCC4)c3s2)C1 (racemic)               IC50            79.4
 1  CN(C1CCCN(Cc2cc3nc(-c4cccc5[nH]ncc45)nc(N4CCOCC4)c3s2)C1)S(C)(=O)=O (racemic)               IC50              20
 2  COCC(=O)NC1CCN(Cc2cc3nc(-c4cnc(N)nc4)nc(N4CCOCC4)c3s2)C1 (racemic)               IC50            79.4
 3  CC(=O)N(C)C1CCN(Cc2cc3nc(-c4cnc(N)nc4)nc(N4CCOCC4)c3s2)CC1               IC50            6.31
 4  COCC(=O)NC1CCCN(Cc2cc3nc(-c4cnc(N)nc4)nc(N4CCOCC4)c3s2)C1 (racemic)               IC50             316
 5  CNC(=O)NC1CCCN(Cc2cc3nc(-c4cnc(N)nc4)nc(N4CCOCC4)c3s2)C1 (racemic)               IC50             126
 6  CC(=O)NC1CCN(Cc2cc3nc(-c4cccc5[nH]ccc45)nc(N4CCOCC4)c3s2)CC1               IC50            79.4
 7  CN(C1CCCN(Cc2cc3nc(-c4cccc5[nH]ccc45)nc(N4CCOCC4)c3s2)C1)S(C)(=O)=O (racemic)               IC50            6.31
 8  CNC(=O)NC1CCN(Cc2cc3nc(-c4cnc(N)nc4)nc(N4CCOCC4)c3s2)CC1               IC50            39.8
 9  CNC(=O)N(C)C1CCCN(Cc2cc3nc(-c4cnc(N)nc4)nc(N4CCOCC4)c3s2)C1 (racemic)               IC50            79.4
10  CC(=O)N(C)C1CCN(Cc2cc3nc(-c4cnc(N)nc4)nc(N4CCOCC4)c3s2)C1 (racemic)               IC50            12.6
11  CNC(=O)N(C)C1CCN(Cc2cc3nc(-c4cccc5[nH]ncc45)nc(N4CCOCC4)c3s2)C1 (racemic)               IC50            63.1

====

Overview of reported pIC50 across a group of compounds:
biological target: Phosphatidylinositol 4,5-bisphosphate 3-kinase catalytic subunit gamma isoform (Homo sapiens, UniProt P48736)
Sequence (P48736 whole entry, canonical isoform): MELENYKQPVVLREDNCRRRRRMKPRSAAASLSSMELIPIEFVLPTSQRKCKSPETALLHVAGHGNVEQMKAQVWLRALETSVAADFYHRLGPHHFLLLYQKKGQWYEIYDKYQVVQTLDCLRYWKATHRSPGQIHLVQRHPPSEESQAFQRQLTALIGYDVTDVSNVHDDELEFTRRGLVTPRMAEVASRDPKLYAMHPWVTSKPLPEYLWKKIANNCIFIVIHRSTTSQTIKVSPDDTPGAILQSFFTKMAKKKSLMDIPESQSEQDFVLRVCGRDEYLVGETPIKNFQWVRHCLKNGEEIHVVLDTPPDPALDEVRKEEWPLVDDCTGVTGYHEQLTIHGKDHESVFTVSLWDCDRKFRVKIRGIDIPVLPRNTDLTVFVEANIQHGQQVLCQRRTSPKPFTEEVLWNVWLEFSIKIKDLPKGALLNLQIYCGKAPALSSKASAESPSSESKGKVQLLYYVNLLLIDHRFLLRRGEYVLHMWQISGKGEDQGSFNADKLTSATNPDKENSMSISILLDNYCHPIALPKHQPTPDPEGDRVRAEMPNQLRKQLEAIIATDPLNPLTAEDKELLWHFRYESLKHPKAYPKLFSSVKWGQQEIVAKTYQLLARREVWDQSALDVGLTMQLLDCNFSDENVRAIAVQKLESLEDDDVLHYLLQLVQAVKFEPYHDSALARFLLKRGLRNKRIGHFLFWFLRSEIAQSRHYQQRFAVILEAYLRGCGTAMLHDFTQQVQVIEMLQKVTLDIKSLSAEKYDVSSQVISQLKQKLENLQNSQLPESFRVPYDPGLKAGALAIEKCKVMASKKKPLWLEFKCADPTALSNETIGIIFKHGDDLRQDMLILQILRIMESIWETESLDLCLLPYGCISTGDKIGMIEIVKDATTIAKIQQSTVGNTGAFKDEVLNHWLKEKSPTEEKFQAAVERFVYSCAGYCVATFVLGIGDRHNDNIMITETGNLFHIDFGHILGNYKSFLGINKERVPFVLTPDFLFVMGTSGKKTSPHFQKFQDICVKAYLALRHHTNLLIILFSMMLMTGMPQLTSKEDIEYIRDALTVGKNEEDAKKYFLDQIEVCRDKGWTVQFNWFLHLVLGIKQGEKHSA
pIC50: −log10 of the molar value.
measured-quantity: pIC50

>>> df
                                   compound  reported_value
0  CC(=O)N(C)C1CCN(Cc2cc3nc(-c4cccc5[nH]ncc45)nc(N4CCOCC4)c3s2)CC1            6.00
1  CS(=O)(=O)NC1CCCN(Cc2cc3nc(-c4cnc(N)nc4)nc(N4CCOCC4)c3s2)C1 (racemic)            7.40
2  CNC(=O)NC1CCCN(Cc2cc3nc(-c4cccc5[nH]ccc45)nc(N4CCOCC4)c3s2)C1 (racemic)            5.60
3  CS(=O)(=O)NC1CCN(Cc2cc3nc(-c4cccc5[nH]ncc45)nc(N4CCOCC4)c3s2)C1 (racemic)            5.90
4  COCC(=O)NC1CCN(Cc2cc3nc(-c4cccc5[nH]ccc45)nc(N4CCOCC4)c3s2)C1 (racemic)            5.60
5  COCC(=O)N(C)C1CCN(Cc2cc3nc(-c4cccc5[nH]ccc45)nc(N4CCOCC4)c3s2)C1 (racemic)            6.00
